molecule: Clc1ccc(CSc2nc3ccc(Cl)cc3n2-c2ccc(Cl)cc2)cc1 [Example 26]
melting point: 156 to 157 °C
//
molecule: FC(F)(F)COc1ccc(-n2c(NCc3ccc(Cl)cc3)nc3cc(Cl)c(Cl)cc32)cc1 [Example 104]
melting point: 138 to 139 °C
//
molecule: CC(C)(C)c1ccc(CNc2nc3ccc(Cl)cc3n2-c2ccc(OC(F)(F)F)cc2)cc1 [Example 80]
melting point: 181 to 182 °C
//
molecule: CCOc1ccc(-n2c(SCc3ccc(C(C)C)cc3)nc3ccc(Cl)cc32)cc1.Cl
melting point: 96 to 100 °C

----------
molecule: CC(C)C(=O)c1ccc(-n2c(SCc3ccc(Cl)cc3)nc3ccc(Cl)cc32)cc1 [Example 41]
melting point: 162 to 163 °C
//
molecule: CCOc1ccc(-n2c(SCc3ccc(-c4ccccc4)cc3)nc3ccc(Cl)cc32)cc1 [Example 34]
melting point: 116 to 117 °C
//
molecule: CCOc1ccc(-n2c(NCc3ccc(C(C)(C)C)cc3)nc3cc(Cl)c(Cl)cc32)cc1 [Example 93]
melting point: 186 to 187 °C
//
molecule: Clc1ccc(CSc2nc3cc(Cl)ccc3n2-c2ccc(OCc3ccccc3)cc2)cc1 [Example 133]
melting point: 137 to 138 °C
//
molecule: CCOc1ccc(-n2c(SCc3ccc(Br)cc3)nc3ccc(Cl)cc32)cc1 [Example 30]
melting point: 136 to 137 °C
//
molecule: CCOc1ccc(-n2c(NCc3ccc(Cl)cc3)nc3ccc(Cl)cc32)cc1.Cl [Example 68]
melting point: 173 to 175 °C
//
molecule: CC(C)(C)c1ccc(CNc2nc3cc(Cl)ccc3n2-c2ccc(OCC(F)(F)F)cc2)cc1 [Example 89]
melting point: 190 to 191 °C
//
molecule: COc1ccc(-n2c(SCc3cccc(OC)c3)nc3ccc(Cl)cc32)cc1 [Example 5]
melting point: 93 to 94 °C
//
molecule: CCOc1ccc(-n2c(SC(C)c3ccc(Br)cc3)nc3ccc(Cl)cc32)cc1 (stereo not shown) [Example 48]
melting point: 95 to 98 °C
//
molecule: CCCOc1ccc(-n2c(NCc3ccc(Cl)cc3)nc3ccc(Cl)cc32)cc1 [Example 74]
melting point: 130 to 131 °C
//
molecule: COc1ccc(-n2c(SCc3ccc(Cl)cc3)nc3cc(Cl)c(Cl)cc32)cc1 [Example 108]
melting point: 141 to 142 °C
//
molecule: CCOc1ccc(-n2c(SCc3ccc(Cl)cc3)nc3cccc(Cl)c32)cc1 [Example 138]
melting point: 130 to 131 °C
//
molecule: OCCOc1ccc(-n2c(SCc3ccc(Cl)cc3)nc3ccc(Cl)cc32)cc1 [Example 16]
melting point: 113 to 114 °C
//
molecule: CCCCOc1ccc(-n2c(SCc3ccc(Cl)cc3)nc3cc(Cl)ccc32)cc1.Cl [Example 122]
melting point: 83 to 89 °C
//
molecule: Clc1ccc(CSc2nc3ccc(Cl)cc3n2-c2ccc(-c3cnco3)cc2)cc1 [Example 136]
melting point: 130 to 131 °C
//
molecule: CS(=O)(=O)Oc1ccc(-n2c(SCc3ccc(Cl)cc3)nc3ccc(Cl)cc32)cc1 [Example 25]
melting point: 128 to 129 °C
//
molecule: O=C(O)c1ccc(-n2c(SCc3ccc(Cl)cc3)nc3ccc(Cl)cc32)cc1 [Example 42]
melting point: 265 to 266 °C
//
molecule: CCOc1ccc(-n2c(SCc3ccc(C(F)(F)F)nc3)nc3ccc(Cl)cc32)cc1 [Example 36]
melting point: 104 to 105 °C
//
molecule: Clc1ccc(CSc2nc3ccc(Cl)cc3n2-c2ccc(C3=NCCO3)cc2)cc1 [Example 124]
melting point: 143 to 144 °C
//
molecule: FC(F)(F)COc1ccc(-n2c(NCc3ccc(Br)cc3)nc3cc(Cl)c(Cl)cc32)cc1 [Example 103]
melting point: 118 to 120 °C
//
molecule: CCCCOc1ccc(-n2c(SCc3ccc(Cl)cc3)nc3cc(Cl)c(Cl)cc32)cc1 [Example 113]
melting point: 99 to 100 °C
//
molecule: CCOC(=O)c1ccc(-n2c(SCc3ccc(Cl)cc3)nc3ccc(Cl)cc32)cc1 [Example 19]
melting point: 100 to 101 °C
//
molecule: COc1ccc(-n2c(SCc3ccc(C(F)(F)F)nc3)nc3ccc(Cl)cc32)cn1.Cl
melting point: 69 to 76 °C
//
molecule: Clc1ccc2nc(SCc3ccccc3)n(-c3ccccc3)c2c1 [Example 49]
melting point: 82 to 83 °C
//
molecule: COc1ccc(-n2c(SCc3ccccc3Cl)nc3ccc(Cl)cc32)cc1 [Example 3]
melting point: 94 to 95 °C
//
molecule: CCOc1ccc(-n2c(SCc3ccc(C(F)(F)F)cc3)nc3ccc(Cl)cc32)cc1 [Example 33]
melting point: 103 to 104 °C
//
molecule: FC(F)(F)COc1ccc(-n2c(NCc3ccc(Cl)cc3)nc3ccc(Cl)cc32)cc1 [Example 79]
melting point: 150 to 151 °C
//
molecule: CCOc1ccc(-n2c(SCc3ccc(C#N)cc3)nc3ccc(Cl)cc32)cc1 [Example 35]
melting point: 154 to 155 °C
//
molecule: CCCOc1ccc(-n2c(NCc3ccc(C(C)(C)C)cc3)nc3ccc(Cl)cc32)cc1 [Example 73]
melting point: 98 to 100 °C
//
molecule: OCc1ccc(-n2c(SCc3ccc(Cl)cc3)nc3ccc(Cl)cc32)cc1 [Example 115]
melting point: 121 to 122 °C
//
molecule: Clc1ccc(CSc2nc3ccc(Cl)cc3n2-c2ccc(OCC3CC3)cc2)cc1 [Example 11]
melting point: 137 to 138 °C
//
molecule: CCOCOc1ccc(-n2c(SCc3ccc(Cl)cc3)nc3ccc(Cl)cc32)cc1 [Example 31]
melting point: 130 to 131 °C
//
molecule: Cl.FC(F)(F)Oc1ccc(-n2c(SCc3ccc(Cl)cc3)nc3cc(Cl)ccc32)cc1
melting point: 96 to 100 °C
//
molecule: FC(F)(F)COc1ccc(-n2c(SCc3ccc(Cl)cc3)nc3cc(Cl)c(Cl)cc32)cc1 [Example 131]
melting point: 90 to 92 °C
